Biological target: T1, P6A-bN
T1 chain: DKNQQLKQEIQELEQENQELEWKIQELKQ
Assay: two-hybrid library CCNG1;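 further: natural log of median RNA to DNA barcode read ratio; higher means stronger binding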
// values below are reported interaction score

binder="DKNQQLKQKIQELKQKIQELKWENQELEQ [P12A-bN]" quantitymeasured="interaction score" experimentalresult=0.295
binder="DEIQQLEQEIQELEQKNQELKWKNQELKQ [P3A-bN]" quantitymeasured="interaction score" experimentalresult=0.0905

Need interaction score, item DENQQLEQKIQELKQKNQELKWEIQELEQ [P5A-bN]
1.62

Consider the binder shown here: DKIQQLKQKIQELKQENQELEWENQELEQ [P4A-bN] What is its recorded interaction score?
-1.54
